Cited source: patent US20250214969A1

The reader will find reported IC50 values listed item by item below.
- system under test: truncated His-MBP-Tev-KLHDC2 (residues 1-363) (Homo sapiens)
- Construct: truncated His -MBP-Tev-KLHDC2 (residues 1-363) purified from E. coli; made in house; host or cells: E. coli
- Sequence (Q9Y2U9 1-363): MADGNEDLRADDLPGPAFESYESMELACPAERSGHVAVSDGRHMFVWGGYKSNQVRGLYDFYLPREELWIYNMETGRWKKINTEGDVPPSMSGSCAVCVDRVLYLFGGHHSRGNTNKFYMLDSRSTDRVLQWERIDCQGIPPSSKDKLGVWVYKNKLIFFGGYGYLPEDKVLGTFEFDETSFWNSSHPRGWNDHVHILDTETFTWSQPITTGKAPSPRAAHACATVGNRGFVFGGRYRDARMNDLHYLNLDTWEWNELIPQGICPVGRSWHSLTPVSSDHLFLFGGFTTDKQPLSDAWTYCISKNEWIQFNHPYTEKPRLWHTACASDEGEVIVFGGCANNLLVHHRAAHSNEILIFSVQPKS
- assay info: KLHDC2 HTRF binding assay
- experimental conditions: 1 nM KLHDC2 (residues 1-363), fluorescein-labeled diglycine peptide probe
measured property: IC50

>>> result("COc1ccc(C#N)cc1-c1ccc(=O)n(CC(=O)O)c1")
"> 5 µM"
>>> result("N#Cc1ccc(OCC(=O)Nc2ccc(=O)n(CC(=O)O)c2)cc1")
"> 5 µM"
>>> result("COc1cc(-c2ccc(CCCCCCCCCNC(=O)C[C@@H]3N=C(c4ccc(Cl)cc4)c4c(sc(C)c4C)-n4c(C)nnc43)cc2)ccc1C(=O)Nc1ccc(=O)n(CC(=O)O)c1")
"0.5 to 5 µM"
>>> result("Cc1cc(O)ccc1-c1ccc(=O)n(CC(=O)O)c1")
"> 5 µM"
>>> result("CCc1ccc(C(=O)Nc2ccc(=O)n(CC(=O)O)c2)cc1-c1cccnc1")
"0.5 to 5 µM"
>>> result("CS(=O)(=O)c1cccc(-c2cccc(C(=O)Nc3ccc(=O)n(CC(=O)O)c3)c2)c1")
"> 5 µM"
>>> result("COc1cncc(N2CCC[C@H](C(=O)Nc3ccc(=O)n(CC(=O)O)c3)C2)c1")
"< 0.05 µM"
>>> result("CN(C)C(=O)c1ccc(-c2ccc(=O)n(CC(=O)O)c2)cc1F")
"> 5 µM"
>>> result("CC(C)Cn1cnc2c(C(=O)Nc3ccc(=O)n(CC(=O)O)c3)cccc21")
"0.5 to 5 µM"
>>> result("CCOC(=O)Cn1cc(NC(=O)c2cccc(-c3cnccc3CCCCCCN)c2)ccc1=O")
"> 5 µM"
>>> result("O=C(O)Cn1cc(N2CCc3ccccc3C2=O)ccc1=O")
"0.5 to 5 µM"
>>> result("O=C(O)Cn1cc(NC(=O)[C@@H]2CCN(c3cccnc3)C2)ccc1=O")
"> 5 µM"
>>> result("CS(=O)(=O)NC(=O)Cn1cc(NC(=O)c2cccc(-c3cccnc3)c2)ccc1=O")
"> 5 µM"
>>> result("CCc1cccc(-c2ccc(=O)n(CC(=O)O)c2)c1")
"> 5 µM"
>>> result("O=C(O)Cc1cc(-c2ccccc2)ccc1O")
"> 5 µM"
>>> result("O=C(O)Cn1cc(NC(=O)COc2cc(Cl)cc(Cl)c2)ccc1=O")
"> 5 µM"
>>> result("CCc1cncc(N2CCC[C@H](C(=O)Nc3ccc(F)c(CC(=O)O)c3)C2)c1")
"< 0.05 µM"
>>> result("O=C(O)CC1CN(C(=O)c2cccc(-c3cccnc3)c2)CCO1 (centres unmarked)")
"> 5 µM"
>>> result("CN(C(=O)Cc1ccc(=O)n(CC(=O)O)c1)c1ccccc1")
"> 5 µM"
>>> result("O=C(O)Cn1cc(NC(=O)c2cccc(-c3cccnc3)n2)ccc1=O")
"0.5 to 5 µM"
